Hi there, I'd appreciate the recorded MIC for every entry that follows.
System: Edwardsiella tarda
One number for each entry, in µg/mL.

Look over these answered cases.
1. NCc1ccccc1CC(=O)N[C@@H]1C(=O)N2C(C(=O)O)=C(CSc3nnnn3CC(=O)O)CS[C@H]12; 0.13
2. O=C(Cc1cccs1)N[C@@H]1C(=O)N2C(C(=O)[O-])=C(C[n+]3ccccc3)CS[C@H]12; 1

Dear colleague, could you send me MIC for each of the items below? Thanks.
1. Cc1nnc(SCC2=C(C(=O)O)N3C(=O)[C@@H](NC(=O)Cn4cnnn4)[C@H]3SC2)s1
2. CC(=O)OCC1=C(C(=O)O)N2C(=O)[C@@H](NC(=O)Cc3cccs3)[C@H]2SC1

0.71
1

====

Hi there, I'd appreciate the recorded ED50 for every entry that follows.
Test system: Proteus vulgaris
Test: Intramuscular treatment of systemically infected mice
Assay type: in vivo
Conditions: im, 3.5 h, Proteus vulgaris strain 3, challenge 4×10^5, treated 1 and 3.5 hours after infection, read-out: PD50 /treatment
Give bare numbers, in mg/kg.

1) O=C(Cc1cccs1)N[C@@H]1C(=O)N2C(C(=O)[O-])=C(C[n+]3ccccc3)CS[C@H]12; 10
2) Cc1nnc(SCC2=C(C(=O)O)N3C(=O)[C@@H](NC(=O)Cn4cnnn4)[C@H]3SC2)s1; 8
3) CC(=O)OCC1=C(C(=O)O)N2C(=O)[C@@H](NC(=O)Cc3cccs3)[C@H]2SC1; 17

Next up:
Tell me the measured ED50 of NCc1ccccc1CC(=O)N[C@@H]1C(=O)N2C(C(=O)O)=C(CSc3nnnn3CC(=O)O)CS[C@H]12 , please.
2.5

====

Assay: Solubility in water, buffer or urine
Conditions: soluble as Na^+ salt, as Na^+ salt
reported-property: solubility

Tell me the measured solubility of NCc1ccccc1CC(=O)N[C@@H]1C(=O)N2C(C(=O)O)=C(CSc3nnnn3CC(=O)O)CS[C@H]12 , please.
≥ 250 mg/mL

====

Test system: Enterobacter cloacae
Assay: Effect of inoculum size on susceptibility of Enterobacteriaceae
Details: read-out: Minimum Inhibitory Concentration, Enterobacter cloacae strain 3, A, Inoculum of 10^2 organisms
Hi there, I'd appreciate the recorded MIC for every entry that follows.
Give bare numbers, in µg/mL.

1. CC(=O)OCC1=C(C(=O)O)N2C(=O)[C@@H](NC(=O)Cc3cccs3)[C@H]2SC1; 16

Dear colleague, could you send me MIC for each of the items below? Thanks.
1. O=C(Cc1cccs1)N[C@@H]1C(=O)N2C(C(=O)[O-])=C(C[n+]3ccccc3)CS[C@H]12
2. Cc1nnc(SCC2=C(C(=O)O)N3C(=O)[C@@H](NC(=O)Cn4cnnn4)[C@H]3SC2)s1

[16, 8]

Quick check: MIC on Enterobacter cloacae, item NCc1ccccc1CC(=O)N[C@@H]1C(=O)N2C(C(=O)O)=C(CSc3nnnn3CC(=O)O)CS[C@H]12 ?
2

====

Hi there, I'd appreciate the recorded MIC for every entry that follows.
System: Klebsiella pneumoniae
Assay: Effect of inoculum size on susceptibility of Enterobacteriaceae
Settings: read-out: Minimum Inhibitory Concentration, Klebsiella pneumoniae strain 6, A, Inoculum of 10^2 organisms
Give bare numbers, in µg/mL.

1. CC(=O)OCC1=C(C(=O)O)N2C(=O)[C@@H](NC(=O)Cc3cccs3)[C@H]2SC1; 1

Dear colleague, could you send me MIC for each of the items below? Thanks.
1. Cc1nnc(SCC2=C(C(=O)O)N3C(=O)[C@@H](NC(=O)Cn4cnnn4)[C@H]3SC2)s1
2. NCc1ccccc1CC(=O)N[C@@H]1C(=O)N2C(C(=O)O)=C(CSc3nnnn3CC(=O)O)CS[C@H]12
3. O=C(Cc1cccs1)N[C@@H]1C(=O)N2C(C(=O)[O-])=C(C[n+]3ccccc3)CS[C@H]12

1: 1; 2: 0.25; 3: 2
